System: H4-III-E cells
Assay: TAT (tyrosine aminotransferase) assay
Type: cell-based
Conditions: 10 μM test compound together with 0.005 μM dexamethasone; inhibitory ratio against TAT activity increase by Dex
Method: H4-III-E cells, which had been continuously cultured in α-MEM medium A (supplemented with 10% inactivated FBS, 50 μM 2-mercapto-ethanol), were suspended in α-MEM medium A or α-MEM medium B (supplemented with 10% inactivated FBS, 50 μM 2-mercapto-ethanol, but without phenol red), and the cell suspension was seeded to a 96-well plate in an amount of 2×10^4 cells/100 μl/well, and the cells were cultured overnight. […] On the other hand, the antagonistic activity was calculated as follows. […]
result_type: Antagonistic activity of 10 μM test compound

CCOC(=O)Cc1ccc(OC2CCN(CC(O)(c3cn(Cc4ccccc4)c4cc([N+](=O)[O-])ccc34)C(F)(F)F)CC2)c(OC)c1 (stereo not shown) [Example 200]
◯
O=C(O)c1ccc(OC2CCN(CC(O)(c3cn(Cc4ccccc4)c4cc([N+](=O)[O-])ccc34)C(F)(F)F)CC2)cc1 (stereo not shown) [Example 178]
◯
O=[N+]([O-])c1ccc2c(C(O)(CN3CCCC(O)C3)C(F)(F)F)cn(Cc3ccccc3)c2c1 (stereo not shown) [Example 165]
◯
CC(C)(C)OC(=O)N1CCN(CC(O)(c2cn(Cc3ccccc3)c3cc([N+](=O)[O-])ccc23)C(F)(F)F)CC1 (stereo not shown) [Example 100]
◯

* * *

Molecular target: human GRα protein (Homo sapiens, UniProt P04150)
Construct: made in house; host or cells: insect cells infected with baculovirus; cytoplasm fraction used
Sequence (P04150 whole entry): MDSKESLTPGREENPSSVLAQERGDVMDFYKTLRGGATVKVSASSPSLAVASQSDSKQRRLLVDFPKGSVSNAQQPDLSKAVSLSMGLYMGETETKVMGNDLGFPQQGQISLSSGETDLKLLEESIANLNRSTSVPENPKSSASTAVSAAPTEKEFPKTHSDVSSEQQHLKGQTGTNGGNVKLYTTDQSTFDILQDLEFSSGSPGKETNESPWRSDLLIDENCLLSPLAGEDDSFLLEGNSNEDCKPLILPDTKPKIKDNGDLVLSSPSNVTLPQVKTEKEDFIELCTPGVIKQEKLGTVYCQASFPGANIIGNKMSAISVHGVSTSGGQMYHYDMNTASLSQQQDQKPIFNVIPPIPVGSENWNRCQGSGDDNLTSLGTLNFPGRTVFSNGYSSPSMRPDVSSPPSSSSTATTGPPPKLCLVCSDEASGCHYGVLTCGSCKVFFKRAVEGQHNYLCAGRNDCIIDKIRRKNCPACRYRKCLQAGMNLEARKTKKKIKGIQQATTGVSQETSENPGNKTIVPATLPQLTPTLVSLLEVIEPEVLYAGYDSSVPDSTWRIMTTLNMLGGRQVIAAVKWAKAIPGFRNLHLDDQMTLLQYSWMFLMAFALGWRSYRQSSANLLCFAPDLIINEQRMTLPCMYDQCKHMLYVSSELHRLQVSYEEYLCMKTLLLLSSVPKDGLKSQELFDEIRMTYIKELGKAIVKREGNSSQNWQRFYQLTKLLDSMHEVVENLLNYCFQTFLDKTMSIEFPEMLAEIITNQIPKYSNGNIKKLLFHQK
Experiment: Binding inhibitory assay (displacement of 3H-dexamethasone from the cytoplasm fraction of baculovirus-infected insect cells)
Details: 100 nM test compound; 3H-Dex; NSB with 10 μM dexamethasone; read-out: Binding Inhibitory ratio (%) of 100 nM of test compound
result_type: inhibition at 0.1 µM (%)
Lab book: enter the figure in %, no units written.

O=[N+]([O-])c1ccc2c(C(O)(CN3CCN(c4ccccc4)CC3)C(F)(F)F)cn(Cc3ccccc3)c2c1 (stereo not drawn)
96
COc1cccc(N2CCN(CC(O)(c3cn(Cc4ccccc4)c4cc([N+](=O)[O-])ccc34)C(F)(F)F)CC2)c1 (stereo not drawn)
97

So the reported inhibition at 0.1 µM for CN1CCCN(C(=O)c2ccc(OC3CCN(CC(O)(c4cn(Cc5ccccc5)c5cc([N+](=O)[O-])ccc45)C(F)(F)F)CC3)cc2)CC1 (stereo not drawn) , on human GRα protein (Homo sapiens, UniProt P04150), turned out to be 94

The value of inhibition at 0.1 µM recorded for COc1ccc(Cn2cc(C(O)(CN3CCC(Oc4ccc(CC(=O)O)cc4OC)CC3)C(F)(F)F)c3ccc(C#N)cc32)cc1 (stereo not drawn) when tested on human GRα protein (Homo sapiens, UniProt P04150) reads 96

Record for O=[N+]([O-])c1ccc2c(C(O)(CN3CCC(O)(Cc4ccccc4)CC3)C(F)(F)F)cn(Cc3ccccc3)c2c1 (stereo not drawn) under target or system human GRα protein (Homo sapiens, UniProt P04150): inhibition at 0.1 µM reported as 60

// assay human GRα protein (Homo sapiens, UniProt P04150), entry O=[N+]([O-])c1ccc2c(C(O)(CN3CCC4(CC3)CNc3ccccc3O4)C(F)(F)F)cn(Cc3ccccc3)c2c1 (stereo not drawn) , inhibition at 0.1 µM value = 64

The compound O=C(c1cccs1)C1CCN(CC(O)(c2cn(Cc3ccccc3)c3cc([N+](=O)[O-])ccc23)C(F)(F)F)CC1 (stereo not drawn) , tested on human GRα protein (Homo sapiens, UniProt P04150), showed inhibition at 0.1 µM of 94

The compound O=C(O)CCc1ccc(OC2CCN(CC(O)(c3cn(Cc4ccccc4)c4cc([N+](=O)[O-])ccc34)C(F)(F)F)CC2)cc1 (stereo not drawn) , when measured on human GRα protein (Homo sapiens, UniProt P04150), yielded inhibition at 0.1 µM of 99

Bench note, human GRα protein (Homo sapiens, UniProt P04150): Cc1ccccc1C(=O)CC(O)(c1cn(Cc2ccccc2)c2cc([N+](=O)[O-])ccc12)C(F)(F)F (stereo not drawn) , inhibition at 0.1 µM reads 79

// compound O=[N+]([O-])c1ccc2c(C(O)(CN3CCC(Oc4ccccc4Cl)CC3)C(F)(F)F)cn(Cc3ccccc3)c2c1 (stereo not drawn) , assay human GRα protein (Homo sapiens, UniProt P04150), inhibition at 0.1 µM value: 78

Form field inhibition at 0.1 µM for item CS(=O)(=O)C1CCN(CC(O)(c2cn(Cc3ccccc3)c3cc([N+](=O)[O-])ccc23)C(F)(F)F)CC1 (stereo not drawn) on human GRα protein (Homo sapiens, UniProt P04150): 88

Summary line: COCCNCC(O)(c1cn(Cc2ccccc2)c2cc([N+](=O)[O-])ccc12)C(F)(F)F (stereo not drawn) , human GRα protein (Homo sapiens, UniProt P04150), reported inhibition at 0.1 µM = 84

human GRα protein (Homo sapiens, UniProt P04150) assay, compound O=[N+]([O-])c1ccc2c(C(O)(CNCc3ccccc3)C(F)(F)F)cn(Cc3ccccc3)c2c1 (stereo not drawn) , recorded inhibition at 0.1 µM = 92

inhibition at 0.1 µM value, target or system human GRα protein (Homo sapiens, UniProt P04150), for O=C(N1CCOCC1)C(O)(c1cn(Cc2ccccc2)c2ccccc12)C(F)(F)F (stereo not drawn) : 50

The compound CCOC(=O)Cc1ccc(OC2CCN(CC(O)(c3cn(Cc4ccccc4)c4cc([N+](=O)[O-])ccc34)C(F)(F)F)CC2)c(OC)c1 (stereo not drawn) on human GRα protein (Homo sapiens, UniProt P04150): inhibition at 0.1 µM was 88

Log: human GRα protein (Homo sapiens, UniProt P04150), compound O=[N+]([O-])c1ccc2c(C(O)(CN3CCC(Oc4ccc(F)cc4)CC3)C(F)(F)F)cn(Cc3ccccc3)c2c1 (stereo not drawn) , inhibition at 0.1 µM = 92

Form field inhibition at 0.1 µM for item O=C(O)Cc1ccc(OC2CCN(CC(O)(c3cn(Cc4ccccc4)c4cc([N+](=O)[O-])ccc34)C(F)(F)F)CC2)cc1 (stereo not drawn) on human GRα protein (Homo sapiens, UniProt P04150): 98

So the reported inhibition at 0.1 µM for COC(CN1CCC(C(=O)c2ccccc2)CC1)(c1cn(Cc2ccccc2)c2cc([N+](=O)[O-])ccc12)C(F)(F)F (stereo not drawn) , on human GRα protein (Homo sapiens, UniProt P04150), turned out to be 91

Bench note, human GRα protein (Homo sapiens, UniProt P04150): entry COc1ccc(C(=O)C2CCN(CC(O)(c3cn(Cc4ccccc4)c4cc([N+](=O)[O-])ccc34)C(F)(F)F)CC2)cc1 (stereo not drawn) , its inhibition at 0.1 µM = 95

Summary: O=C(c1cccnc1)C1CCN(CC(O)(c2cn(Cc3ccccc3)c3cc([N+](=O)[O-])ccc23)C(F)(F)F)CC1 (stereo not drawn) , human GRα protein (Homo sapiens, UniProt P04150), inhibition at 0.1 µM = 94

* * *

Tested on: H4-III-E cells
Assay: TAT (tyrosine aminotransferase) assay
Assay type: cell-based
Settings: 10 μM test compound together with 0.005 μM dexamethasone; inhibitory ratio against TAT activity increase by Dex
result_type: Antagonistic activity of 10 μM test compound

O=[N+]([O-])c1ccc2c(C(O)(CN3CCC(O)CC3)C(F)(F)F)cn(Cc3ccccc3)c2c1 (stereo not drawn)
◯
O=[N+]([O-])c1ccc2c(C(O)(CN3CCC4(CC3)CS(=O)(=O)c3ccccc3O4)C(F)(F)F)cn(Cc3ccccc3)c2c1 (stereo not drawn)
◯
COc1cccc(N2CCN(CC(O)(c3cn(Cc4ccccc4)c4cc([N+](=O)[O-])ccc34)C(F)(F)F)CC2)c1 (stereo not drawn)
◯

* * *

Molecular target: human GRα protein (Homo sapiens)
Construct: made in house; host or cells: insect cells infected with baculovirus; cytoplasm fraction used
Assay: Binding inhibitory assay (displacement of 3H-dexamethasone from the cytoplasm fraction of baculovirus-infected insect cells)
Details: 100 nM test compound; 3H-Dex; NSB with 10 μM dexamethasone; read-out: Binding Inhibitory ratio (%) of 100 nM of test compound
inhibition at 0.1 µM values by entry
Report the value in % with no unit label.

Past entries and their recorded results:
O=[N+]([O-])c1ccc2c(C(O)(CN3CCS(=O)(=O)CC3)C(F)(F)F)cn(Cc3ccccc3)c2c1 (stereo not shown) [Example 120]
97
O=[N+]([O-])c1ccc2c(C(O)(Cn3cccn3)C(F)(F)F)cn(Cc3ccccc3)c2c1 (stereo not shown) [Example 150]
98
O=[N+]([O-])c1ccc2c(C(O)(Cn3ccnc3)C(F)(F)F)cn(Cc3ccccc3)c2c1 (stereo not shown) [Example 158]
96
O=[N+]([O-])c1ccc2c(C(O)(CN3CCN(S(=O)(=O)c4ccccc4)CC3)C(F)(F)F)cn(Cc3ccccc3)c2c1 (stereo not shown) [Example 112]
98

# inhibition at 0.1 µM of O=[N+]([O-])c1ccc2c(C(O)(CN3CCCCC3)C(F)(F)F)cn(Cc3ccccc3)c2c1 (stereo not shown) [Example 1] = 92

Record O=C(c1cccs1)N1CCN(CC(O)(c2cn(Cc3ccccc3)c3cc([N+](=O)[O-])ccc23)C(F)(F)F)CC1 (stereo not shown) [Example 106] . Reported inhibition at 0.1 µM: 101

Summary for this compound, COc1cc(CC(=O)O)ccc1OC1CCN(CC(O)(c2cn(Cc3ccncc3)c3cc(C#N)ccc23)C(F)(F)F)CC1 (stereo not shown) [Example 235] : inhibition at 0.1 µM is 79
